# MEASURED_TARGET: cyclooxygenase (Ovis aries, UniProt P05979)
# Construct: suspension of sheep seminal vesicle microsomes; from tissue; host or cells: sheep seminal vesicle microsomes
# Sequence (P05979 25-600): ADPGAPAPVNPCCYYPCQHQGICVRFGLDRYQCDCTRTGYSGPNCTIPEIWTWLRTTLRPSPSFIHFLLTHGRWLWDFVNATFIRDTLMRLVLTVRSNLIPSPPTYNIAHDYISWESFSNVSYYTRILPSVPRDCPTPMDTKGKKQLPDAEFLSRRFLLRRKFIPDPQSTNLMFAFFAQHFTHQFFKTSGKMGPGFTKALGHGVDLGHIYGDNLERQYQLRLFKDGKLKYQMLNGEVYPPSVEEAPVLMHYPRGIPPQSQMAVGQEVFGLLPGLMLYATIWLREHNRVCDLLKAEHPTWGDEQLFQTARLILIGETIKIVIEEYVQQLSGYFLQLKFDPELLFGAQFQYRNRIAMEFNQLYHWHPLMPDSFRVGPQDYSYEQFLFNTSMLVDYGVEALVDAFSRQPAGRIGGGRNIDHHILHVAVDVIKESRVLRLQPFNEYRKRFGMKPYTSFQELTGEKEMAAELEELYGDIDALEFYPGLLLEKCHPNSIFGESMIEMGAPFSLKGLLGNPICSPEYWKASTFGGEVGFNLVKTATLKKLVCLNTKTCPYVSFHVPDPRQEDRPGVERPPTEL
# TEST_DETAILS: Inhibition of cyclooxygenase in sheep seminal vesicle microsomes
# Assay type: biochemical
# EXPERIMENTAL_SETUP: cyclooxygenase IC50 (II) / 5-lipoxygenase IC50 (I)
REPORTED_ENDPOINT: Quotient IC50 II/IC50 I
API note: the answer field is a bare number with no unit suffix.

INSERT INTO assay_data (compound, measured_value) VALUES
  ('CCCCCC(O)C#CCCCCCCC#Cc1ccc(O)c(O)c1 (stereo not drawn) [Example 14]', 119.1),
  ('COc1cc(C#CCCCCCCC#CCO)cc(OC)c1O [Example 18]', 380.0),
  ('OC/C=C\CCCCCC/C=C\c1ccc(O)c(O)c1 [Example 9]', 90.3),
  ('CC(C)(O)C#CCCCCCCC#Cc1ccc(O)c(O)c1 [Example 13]', 88.6),
  ('Oc1ccc(C#CCCCCCC/C=C/C(O)C2CCCCC2)cc1O (stereo not drawn) [Example 22c]', 44.8),
  ('OCC#CCCCCCCC#Cc1ccc(O)c(O)c1 [Example 7]', 253.3),
  ('Oc1ccc(C#CCCCCCCC#CC(O)C2CCCCC2)cc1O (stereo not drawn) [Example 16]', 132.1);

Continue with the compound presented below.
Prompt line: Query for cyclooxygenase (Ovis aries, UniProt P05979): what Quotient IC50 II/IC50 I does the record show for Oc1ccc(/C=C\CCCCCC/C=C/C(O)C2CCCCC2)cc1O (stereo not drawn) [Example 22d] ?
Response line: 64.3
